# Tested on: 653999-131-R-J2-PDC complex spheroids, growth % test/control
# Measurement Notes: Anticancer human tumor 653999-131-R-J2-PDC patient-derived lung adenocarcinoma cell line growth inhibition [AhR]
# Test Settings: second compound 10 µM; first compound 0.0316 µM; stronger effect = lower value
Note to self: use yes only for viability, T/C readings below 70%; a reading exactly at 70% still gets no.

Molecule	Assigned Category
COc1cccc2c1C(=O)c1c(O)c3c(c(O)c1C2=O)CC(O)(C(=O)CO)CC3OC1CC(N)C(O)C(C)O1 (configuration not stated) + CC(CO)NC(=O)c1cc(-c2ccc(Cl)cc2)nn(-c2cnn(C)c2)c1=O	no
COc1cc(C2c3cc4c(cc3C(OC3OC5COC(C)OC5C(O)C3O)C3COC(=O)C23)OCO4)cc(OC)c1O (configuration not stated) + Cc1ccccc1N=Nc1ccc(NC(=O)c2ccnn2C)c(C)c1	no
CC1COCCN1c1cc(-c2ccnn2C)c2ccnc(-c3ccn[nH]3)c2n1 (configuration not stated) + CC(CO)NC(=O)c1cc(-c2ccc(Cl)cc2)nn(-c2cnn(C)c2)c1=O	yes
Nc1ccccc1NC(=O)c1ccc(CNC(=O)OCc2cccnc2)cc1 + Cc1cncc(-c2nc(NCCc3c[nH]c4ccccc34)c3ncn(C(C)C)c3n2)c1	yes
CC(C)c1c(-c2ccccc2)nc2c(C#N)c[nH]n2c1=O + Cc1ccccc1N=Nc1ccc(NC(=O)c2ccnn2C)c(C)c1	no
CC1COCCN1c1cc(C2(S(C)(=N)=O)CC2)nc(-c2ccnc3[nH]ccc23)n1 (configuration not stated) + CC(CO)NC(=O)c1cc(-c2ccc(Cl)cc2)nn(-c2cnn(C)c2)c1=O	no
Nc1ccn(C2OC(CO)C(O)C2(F)F)c(=O)n1 (configuration not stated) + CC(CO)NC(=O)c1cc(-c2ccc(Cl)cc2)nn(-c2cnn(C)c2)c1=O	no
COc1ccc([C@@H](O)c2cc(-c3ncnc4cc(N5CCOCC5)ccc34)c(F)cc2Cl)nn1 + Cc1ccccc1N=Nc1ccc(NC(=O)c2ccnn2C)c(C)c1	no
Nc1ccn(C2OC(CO)C(O)C2(F)F)c(=O)n1 (configuration not stated) + Cc1ccccc1N=Nc1ccc(NC(=O)c2ccnn2C)c(C)c1	yes
CC[C@@]1(O)C(=O)OCc2c1cc1n(c2=O)Cc2cc3c(CN(C)C)c(O)ccc3nc2-1 + Cc1ccccc1N=Nc1ccc(NC(=O)c2ccnn2C)c(C)c1	yes
Cn1ncnc1C1c2n[nH]c(=O)c3cc(F)cc(c23)NC1c1ccc(F)cc1 (configuration not stated) + Cc1cncc(-c2nc(NCCc3c[nH]c4ccccc34)c3ncn(C(C)C)c3n2)c1	yes

====

# System: 653999-131-R-J2-PDC complex spheroids, growth % test/control
# Measurement Notes: Anticancer human tumor 653999-131-R-J2-PDC cell line growth inhibition [AhR]; active means viability on the fitted dose curve at most 10% of control; inactive means the rest;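 also: spheroids exposed to agents for seven days; 100% = DMSO vehicle control viability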
# Test Settings: second compound 3.16 µM; first compound 0.0949 µM
Outcomes: 1 for active, 0 for inactive

Compound	Assigned Category
CC(C)CC(NC(=O)C(Cc1ccccc1)NC(=O)c1cnccn1)B(O)O (configuration not stated) + Cc1ccccc1N=Nc1ccc(NC(=O)c2ccnn2C)c(C)c1	0
CCc1c2c(nc3ccc(O)cc13)-c1cc3c(c(=O)n1C2)COC(=O)[C@]3(O)CC + Cc1cncc(-c2nc(NCCc3c[nH]c4ccccc34)c3ncn(C(C)C)c3n2)c1	0
CC(C)CC(NC(=O)C(Cc1ccccc1)NC(=O)c1cnccn1)B(O)O (configuration not stated) + CC(CO)NC(=O)c1cc(-c2ccc(Cl)cc2)nn(-c2cnn(C)c2)c1=O	1
O=C(C=Cn1cnc(-c2cc(C(F)(F)F)cc(C(F)(F)F)c2)n1)NNc1cnccn1 + Cc1cncc(-c2nc(NCCc3c[nH]c4ccccc34)c3ncn(C(C)C)c3n2)c1	0
CCN(c1cc(-c2ccc(CN3CCOCC3)cc2)cc(C(=O)NCc2c(C)cc(C)[nH]c2=O)c1C)C1CCOCC1 + Cc1cncc(-c2nc(NCCc3c[nH]c4ccccc34)c3ncn(C(C)C)c3n2)c1	0
Nc1ncn(C2CC(O)C(CO)S2)c(=O)n1 (configuration not stated) + CC(CO)NC(=O)c1cc(-c2ccc(Cl)cc2)nn(-c2cnn(C)c2)c1=O	0
CCN(c1cc(-c2ccc(CN3CCOCC3)cc2)cc(C(=O)NCc2c(C)cc(C)[nH]c2=O)c1C)C1CCOCC1 + Cc1ccccc1N=Nc1ccc(NC(=O)c2ccnn2C)c(C)c1	0
O=C(C=Cn1cnc(-c2cc(C(F)(F)F)cc(C(F)(F)F)c2)n1)NNc1cnccn1 + Cc1ccccc1N=Nc1ccc(NC(=O)c2ccnn2C)c(C)c1	0
CCc1c2c(nc3ccc(O)cc13)-c1cc3c(c(=O)n1C2)COC(=O)[C@]3(O)CC + CC(CO)NC(=O)c1cc(-c2ccc(Cl)cc2)nn(-c2cnn(C)c2)c1=O	0
CC(C)CC(NC(=O)C(Cc1ccccc1)NC(=O)c1cnccn1)B(O)O (configuration not stated) + Cc1cncc(-c2nc(NCCc3c[nH]c4ccccc34)c3ncn(C(C)C)c3n2)c1	1
CCN(c1cc(-c2ccc(CN3CCOCC3)cc2)cc(C(=O)NCc2c(C)cc(C)[nH]c2=O)c1C)C1CCOCC1 + CC(CO)NC(=O)c1cc(-c2ccc(Cl)cc2)nn(-c2cnn(C)c2)c1=O	0
CCc1c2c(nc3ccc(O)cc13)-c1cc3c(c(=O)n1C2)COC(=O)[C@]3(O)CC + Cc1ccccc1N=Nc1ccc(NC(=O)c2ccnn2C)c(C)c1	0

Hello, the source for this data is PubChem BioAssay AID1919000, in case you need it.
